- Tested on: multi-drug resistant cell line Klon 2 (10×80)
- ASSAY SUMMARY: XTT/PMS cytotoxicity assay, multidrug resistant hepatoma cells
- Assay type: cell-based, rat
- CONDITION SET: 72 hrs incubation

SUBSTANCE: c[-Tyr-Trp-Lys-Thr-Z1-]
UNIT ABBREVIATION: µM
IC50: 47

###

- System: A431 (an epidermoid cancer)
- CONDITION SET: A431, MB and MTT assays
Starred links: 1 amine or outer side, 2 acyl side, 3 side chain; linkers in the order of their positions; H or OH if unused. Non-standard residues stand in square brackets, D forms with d. Residues, ends and D or L forms follow the SMILES beside them. ξ: configuration not given here. *: point of attachment. X1 = CC1(C)OC2[C@H](OC(C(O)C(=O)[*:2])[C@H]2N[*:1])O1; X2 = CC1(C)OC2[C@H](O[C@H](C(=O)[*:2])[C@H]2N[*:1])O1; Bip = N[C@@H](Cc1ccc(-c2ccccc2)cc1)C(=O)O; Trt = c1ccc(C(c2ccccc2)(c2ccccc2)*)cc1; ξW = NC(Cc1c[nH]c2ccccc12)C(=O)O; Thr(3ξ) = CC(O)[C@H](N)C(=O)O; ξY = NC(Cc1ccc(O)cc1)C(=O)O; ξF = NC(Cc1ccccc1)C(=O)O; ξK = NCCCCC(N)C(=O)O; Bn = c1ccc(C*)cc1

COMPOUND: CC(OCc1ccccc1)[C@@H]1NC(=O)C(CCCCN)NC(=O)C(Cc2c[nH]c3ccccc23)NC(=O)C(Cc2ccc(O)cc2)NC(=O)[C@H]2O[C@@H]3OC(C)(C)OC3[C@@H]2NC1=O (stereo partly drawn) [SGnc 38, cyclo[-D-Trp-Lys-Thr(OBzl)-Z1-Tyr-]] (cyclo([Thr(3ξ)](Bn)[X2][ξY][ξW][ξK]))
IC50: ~50 µM
--
COMPOUND: CC(OC(c1ccccc1)(c1ccccc1)c1ccccc1)[C@@H]1NC(=O)C(CCCCN)NC(=O)[C@@H](Cc2c[nH]c3ccccc23)NC(=O)C(Cc2ccccc2)NC(=O)C(O)C2O[C@@H]3OC(C)(C)OC3[C@@H]2NC1=O (stereo partly drawn) [SGnc 18, c[-D-Trp-Lys-Thr(OTrt)-Z2-Phe-]] (cyclo([Thr(3ξ)](Trt)[X1][ξF][dW][ξK]))
IC50: ~50 µM
--
COMPOUND: CC1(C)OC2[C@H](OC3C(O)C(=O)NC(Cc4ccccc4)C(=O)N[C@H](Cc4c[nH]c5ccccc45)C(=O)NC(CCCCN)C(=O)N[C@@H](Cc4ccc(-c5ccccc5)cc4)C(=O)N[C@H]32)O1 (stereo partly drawn) [SGnc 20, cyclo[-D-Trp-Lys-Thr(OTrt)-Z2-Phe-]] (cyclo([Bip][X1][ξF][dW][ξK]))
IC50: ~60 µM
--
COMPOUND: CC(OC(c1ccccc1)(c1ccccc1)c1ccccc1)[C@@H]1NC(=O)C(CCCCN)NC(=O)[C@@H](Cc2csc3ccccc23)NC(=O)C(Cc2ccc(O)cc2)NC(=O)[C@H]2O[C@@H]3OC(C)(C)OC3[C@@H]2NC1=O (stereo partly shown)
IC50: ~38 µM

Values compiled from patent US20030114362A1.
